Measurement record for Adenosine receptor A3 (Homo sapiens); quantity recorded: AC50.

Reference set, count: 2
compound	AC50
CN(CCOc1ccc(NS(C)(=O)=O)cc1)CCc1ccc(NS(C)(=O)=O)cc1 [DOFETILIDE]	> 30 µM
CCC(=O)c1c(O)cc(O)cc1O	> 30 µM

For this compound ( O=[N+]([O-])c1cncn1CCN1CCOCC1 ), measured AC50 is > 30 µM

For this compound ( CC(C)Cc1ccc(C(C)C(=O)NO)cc1 (centres undefined) ), measured AC50 is > 30 µM

For this compound ( CC(N/C(=N\C#N)Nc1ccncc1)C(C)(C)C (centres undefined) [PINACIDIL ANHYDROUS] ), measured AC50 is > 30 µM

For this compound ( CO[C@@]12[C@H](COC(N)=O)C3=C(C(=O)C(C)=C(N)C3=O)N1C[C@@H]1N[C@@H]12 ), measured AC50 is > 30 µM

For this compound ( CC(C(=O)O)c1ccc2c(c1)Cc1cccnc1O2 (centres undefined) ), measured AC50 is > 30 µM

For this compound ( Cc1c(-c2ccccc2)oc2c(C(=O)OCCN3CCCCC3)cccc2c1=O [FLAVOXATE] ), measured AC50 is 5.29 µM

For this compound ( C(=N\NC1=NCCN1)/c1c2ccccc2c(/C=N/NC2=NCCN2)c2ccccc12 ), measured AC50 is 2.01 µM

====

Here, each record is paired with measured AC50 data.
molecular target: UniProtKB Q01959
Sequence (Q01959 whole entry): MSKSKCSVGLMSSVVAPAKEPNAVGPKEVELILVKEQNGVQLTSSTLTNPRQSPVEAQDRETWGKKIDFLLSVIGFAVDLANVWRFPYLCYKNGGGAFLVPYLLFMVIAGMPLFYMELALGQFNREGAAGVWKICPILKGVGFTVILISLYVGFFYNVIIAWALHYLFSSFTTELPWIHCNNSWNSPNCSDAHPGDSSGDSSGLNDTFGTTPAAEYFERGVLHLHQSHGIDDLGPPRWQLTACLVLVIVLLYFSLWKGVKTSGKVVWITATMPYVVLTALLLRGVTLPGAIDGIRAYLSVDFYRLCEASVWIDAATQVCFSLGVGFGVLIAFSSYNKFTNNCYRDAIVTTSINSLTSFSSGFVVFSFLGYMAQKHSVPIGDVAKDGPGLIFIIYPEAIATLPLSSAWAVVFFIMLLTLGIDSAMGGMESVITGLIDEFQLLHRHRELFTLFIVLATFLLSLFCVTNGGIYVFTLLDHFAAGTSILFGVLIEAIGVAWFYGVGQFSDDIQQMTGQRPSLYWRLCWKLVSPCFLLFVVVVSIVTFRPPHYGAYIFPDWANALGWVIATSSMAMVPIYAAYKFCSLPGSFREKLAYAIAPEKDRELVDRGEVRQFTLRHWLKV

Reference set, count: 3
molecule	AC50
Nc1ccc(S(N)(=O)=O)cc1 [SULFANILAMIDE]	> 30 µM
O=C1NCC2(CCN(CCc3ccccc3)CC2)O1 [FENSPIRIDE]	> 30 µM
CN1C(=O)N(C)C2C1N(C)C(=O)N2C (centres undefined)	> 30 µM

Note to self: AC50 of COC(=O)C1=C(C)NC(C)=C(C(=O)OC)C1c1ccccc1[N+](=O)[O-] with UniProtKB Q01959 was > 30 µM

Note to self: AC50 of O=C(O)CCn1c2c(c3ccccc31)C[C@H](NS(=O)(=O)c1ccc(F)cc1)CC2 with UniProtKB Q01959 was > 30 µM

Note to self: AC50 of CC1(C)O[C@@H]2C[C@H]3[C@@H]4C[C@H](F)C5=CC(=O)CC[C@]5(C)[C@H]4[C@@H](O)C[C@]3(C)[C@]2(C(=O)CO)O1 [FLURANDRENOLIDE] with UniProtKB Q01959 was > 30 µM

Note to self: AC50 of CN(Cc1cc(Br)cc(Br)c1N)C1CCCCC1 with UniProtKB Q01959 was 12.3 µM

Note to self: AC50 of COc1cc(NCc2ccc3nc(N)nc(N)c3c2C)cc(OC)c1OC [TRIMETREXATE] with UniProtKB Q01959 was 9.54 µM

Note to self: AC50 of CN(C)c1ccc(C(=C2C=CC(=[N+](C)C)C=C2)c2ccc(N(C)C)cc2)cc1 with UniProtKB Q01959 was 3.4 µM

====

Here, each record is paired with measured AC50 data.
target: 5-hydroxytryptamine receptor 2B (Homo sapiens); type: functional, cell-based; also: assay procedure not described here
Sequence (P41595 whole entry): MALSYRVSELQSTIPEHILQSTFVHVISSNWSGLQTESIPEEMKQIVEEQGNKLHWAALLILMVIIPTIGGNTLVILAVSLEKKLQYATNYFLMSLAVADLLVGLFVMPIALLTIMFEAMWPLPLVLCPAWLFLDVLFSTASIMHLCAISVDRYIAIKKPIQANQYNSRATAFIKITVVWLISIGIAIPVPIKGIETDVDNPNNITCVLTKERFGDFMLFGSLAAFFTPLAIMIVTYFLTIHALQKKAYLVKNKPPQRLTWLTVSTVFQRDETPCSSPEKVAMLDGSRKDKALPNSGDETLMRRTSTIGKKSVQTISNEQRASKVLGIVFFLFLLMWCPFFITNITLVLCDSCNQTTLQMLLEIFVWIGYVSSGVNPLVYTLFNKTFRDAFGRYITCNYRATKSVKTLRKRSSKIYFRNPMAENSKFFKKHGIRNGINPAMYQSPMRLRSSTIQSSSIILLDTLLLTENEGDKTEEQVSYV

Note to self: AC50 of OCc1cc([C@@H](O)CNCCCCCCOCCOCc2c(Cl)cccc2Cl)ccc1O [VILANTEROL] with 5-hydroxytryptamine receptor 2B (Homo sapiens) was > 30 µM

Note to self: AC50 of COC(=O)C1=C(C)NC(C)=C(C(=O)OCC(C)C)C1c1ccccc1[N+](=O)[O-] (stereo not drawn) [NISOLDIPINE] with 5-hydroxytryptamine receptor 2B (Homo sapiens) was 17 µM

Note to self: AC50 of NC[C@H]1O[C@H](O[C@H]2[C@H](O)[C@@H](O[C@H]3O[C@H](CO)[C@@H](O)[C@H](N)[C@H]3O)[C@H](N)C[C@@H]2N)[C@H](O)[C@@H](O)[C@@H]1O [KANAMYCIN] with 5-hydroxytryptamine receptor 2B (Homo sapiens) was > 10 µM

Note to self: AC50 of CCCCC(C)(O)C/C=C/[C@H]1[C@H](O)CC(=O)[C@@H]1CCCCCCC(=O)OC (stereo partly drawn) [MISOPROSTOL] with 5-hydroxytryptamine receptor 2B (Homo sapiens) was > 30 µM

Note to self: AC50 of C[C@@H]1O[C@@H]1P(=O)(O)O [FOSFOMYCIN] with 5-hydroxytryptamine receptor 2B (Homo sapiens) was > 10 µM

Note to self: AC50 of CS(=O)(=O)Nc1cc2occ(NC=O)c(=O)c2cc1Oc1ccccc1 [IGURATIMOD] with 5-hydroxytryptamine receptor 2B (Homo sapiens) was > 30 µM

Note to self: AC50 of CO/N=C(\C(=O)N[C@@H]1C(=O)N2C(C(=O)OCOC(=O)C(C)(C)C)=C(C)CS[C@H]12)c1csc(N)n1 with 5-hydroxytryptamine receptor 2B (Homo sapiens) was > 30 µM

Note to self: AC50 of C=C1CC[C@@]2(O)[C@H]3Cc4ccc(O)c5c4[C@@]2(CCN3CC2CC2)[C@H]1O5 with 5-hydroxytryptamine receptor 2B (Homo sapiens) was > 30 µM
